# System: Escherichia coli TOP10
# assay.text: shrunken log2 fold change of peptide-encoding DNA abundance (4.5 h post-induction vs induction); higher = less antimicrobial activity (less host growth inhibition)
# condition.set: time post-induction: 4.5 h; library: site-saturation at positions 5, 18, 19, 20
measured.parameter: shrunken log2 fold change
Simply state the number, no unit and no words.

In: Which value of shrunken log2 fold change has been reported for "RRIRERPPRLPRPRPRPWRQPRP" in the records?
Out: -0.00951

In: Now consider "RRIRSRPPRLPRPRPRPPMGPRP" and answer again.
Out: -0.0142

In: Now consider "RRIRFRPPRLPRPRPRPRRYPRP" and answer again.
Out: -0.0281

In: Now consider "RRIRRRPPRLPRPRPRPFEGPRP" and answer again.
Out: 0.0216

In: Now consider "RRIRVRPPRLPRPRPRPNDIPRP" and answer again.
Out: -0.235

###

# Tested on: Escherichia coli TOP10
# assay.text: shrunken log2 fold change of peptide-encoding DNA abundance (4.5 h post-induction vs induction); higher = less antimicrobial activity (less host growth inhibition)
# condition.set: time post-induction: 4.5 h; library: site-saturation at positions 5, 18, 19, 20
measured.parameter: shrunken log2 fold change
Simply state the number, no unit and no words.

In: Which value of shrunken log2 fold change has been reported for "RRIRIRPPRLPRPRPRPLAGPRP" in the records?
Out: 0.00712

In: Now consider "RRIRWRPPRLPRPRPRPQYGPRP" and answer again.
Out: -0.442

In: Now consider "RRIRQRPPRLPRPRPRPIHIPRP" and answer again.
Out: -0.187

In: Now consider "RRIRSRPPRLPRPRPRPLCNPRP" and answer again.
Out: -0.278

###

# System: Escherichia coli TOP10
# assay.text: shrunken log2 fold change of peptide-encoding DNA abundance (4.5 h post-induction vs induction); higher = less antimicrobial activity (less host growth inhibition)
# condition.set: time post-induction: 4.5 h; library: site-saturation at positions 5, 18, 19, 20
measured.parameter: shrunken log2 fold change
Simply state the number, no unit and no words.

In: Which value of shrunken log2 fold change has been reported for "RRIRQRPPRLPRPRPRPEMFPRP" in the records?
Out: -0.118

In: Now consider "RRIRPRPPRLPRPRPRPDKCPRP" and answer again.
Out: -0.432

In: Now consider "RRIRTRPPRLPRPRPRPITVPRP" and answer again.
Out: -0.154

In: Now consider "RRIRLRPPRLPRPRPRPYMKPRP" and answer again.
Out: -0.804

---
In: Which value of shrunken log2 fold change has been reported for "RRIRLRPPRLPRPRPRPDSSPRP" in the records?
Out: 0.00161

In: Now consider "RRIRPRPPRLPRPRPRPFILPRP" and answer again.
Out: -0.582

###

Each entry below lists one item and its recorded shrunken log2 fold change value.
# System: Escherichia coli TOP10;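 further: peptides expressed intracellularly from a pBAD plasmid library in pooled LB shake-flask culture, induced with 0.3% L-arabinose, DNA abundance read by NGS, three biological replicates, DESeq2 with apeglm shrinkage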
# assay.text: shrunken log2 fold change of peptide-encoding DNA abundance (4.5 h post-induction vs induction); higher = less antimicrobial activity (less host growth inhibition)
# condition.set: time post-induction: 4.5 h; library: site-saturation at positions 5, 18, 19, 20
Simply state the number, no unit and no words.

Example results:
In: Which value of shrunken log2 fold change has been reported for "RRIRGRPPRLPRPRPRPMPIPRP" in the records?
Out: 0.0958

In: Now consider "RRIRSRPPRLPRPRPRPVIKPRP" and answer again.
Out: -0.476

In: Now consider "RRIRPRPPRLPRPRPRPSHAPRP" and answer again.
Out: -0.166

In: Now consider "RRIRCRPPRLPRPRPRPLHSPRP" and answer again.
Out: -0.383

In: Now consider "RRIRPRPPRLPRPRPRPIQQPRP" and answer again.
Out: 0.000308

In: Now consider "RRIRSRPPRLPRPRPRPISWPRP" and answer again.
Out: -0.186

In: Now consider "RRIRPRPPRLPRPRPRPVRDPRP" and answer again.
Out: 0.146

In: Now consider "RRIRSRPPRLPRPRPRPERIPRP" and answer again.
Out: -0.065

---
In: Which value of shrunken log2 fold change has been reported for "RRIRPRPPRLPRPRPRPALGPRP" in the records?
Out: 0.964

In: Now consider "RRIRHRPPRLPRPRPRPELSPRP" and answer again.
Out: 0.252

In: Now consider "RRIRTRPPRLPRPRPRPTSFPRP" and answer again.
Out: 0.0555

In: Now consider "RRIRVRPPRLPRPRPRPFFVPRP" and answer again.
Out: -0.0592
